FYI, the data here is from patent US20190359609A1.

system.name: recombinant human Meningioma Expressed Antigen 5 (MGEA5), also referred to as O-GlcNAcase (OGA) (Homo sapiens)
Construct: Full length OGA enzyme was purchased at OriGene (cat # TP322411); purchased OriGene TP322411
Sequence (O60502 whole entry): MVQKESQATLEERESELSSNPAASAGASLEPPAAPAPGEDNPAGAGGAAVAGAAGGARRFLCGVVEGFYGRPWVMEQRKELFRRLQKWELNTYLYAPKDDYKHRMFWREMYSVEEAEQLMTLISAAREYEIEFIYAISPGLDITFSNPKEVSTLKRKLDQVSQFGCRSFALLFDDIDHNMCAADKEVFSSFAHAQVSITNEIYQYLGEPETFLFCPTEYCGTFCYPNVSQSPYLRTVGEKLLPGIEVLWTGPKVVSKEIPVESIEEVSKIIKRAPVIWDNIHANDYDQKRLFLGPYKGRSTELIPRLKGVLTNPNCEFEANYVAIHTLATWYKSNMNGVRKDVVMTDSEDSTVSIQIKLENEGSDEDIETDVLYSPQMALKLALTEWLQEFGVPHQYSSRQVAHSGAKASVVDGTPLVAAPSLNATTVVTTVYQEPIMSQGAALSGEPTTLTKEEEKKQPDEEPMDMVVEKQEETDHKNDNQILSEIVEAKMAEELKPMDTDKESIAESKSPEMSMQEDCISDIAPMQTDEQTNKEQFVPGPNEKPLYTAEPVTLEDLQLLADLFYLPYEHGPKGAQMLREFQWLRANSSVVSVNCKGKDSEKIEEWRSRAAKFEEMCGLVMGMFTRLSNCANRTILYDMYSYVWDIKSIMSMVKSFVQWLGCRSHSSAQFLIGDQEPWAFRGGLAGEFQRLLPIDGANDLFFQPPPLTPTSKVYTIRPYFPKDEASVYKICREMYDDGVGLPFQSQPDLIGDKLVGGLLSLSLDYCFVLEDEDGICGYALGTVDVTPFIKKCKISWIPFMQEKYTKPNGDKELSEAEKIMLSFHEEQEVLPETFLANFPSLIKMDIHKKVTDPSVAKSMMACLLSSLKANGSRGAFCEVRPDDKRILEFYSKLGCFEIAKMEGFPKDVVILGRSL
experiment.summary: OGA biochemical assay: inhibition of FM-GlcNAc hydrolysis, fluorescence (protocol A 10 nM OGA, 1 h; protocol B 2 nM OGA, 6 h)
experimental.conditions: Enzymatic protocol B (2 nM OGA, 6 h)

{"molecule": "CC(c1ccc2c(c1)OCCO2)N1CCCC(c2cc3ncccc3[nH]2)C1 (single isomer, unassigned) [Compound 36]", "unit.of.measurement": "%", "Enzymatic Emax (%)": 101.3}
{"molecule": "CC(c1ccc2c(c1)OCO2)N1CCCC(c2cc3ncccc3n2C)C1 (single isomer, unassigned) [Compound 47]", "unit.of.measurement": "%", "Enzymatic Emax (%)": 85.8}
{"molecule": "Cn1c(C2CCCN(Cc3ccc4nccnc4c3)C2)cc2ncccc21 (single isomer, unassigned) [Compound 43]", "unit.of.measurement": "%", "Enzymatic Emax (%)": 46.5}
{"molecule": "CC(c1ccc2c(c1)OCCO2)N1CCCC(c2cc3ncccc3[nH]2)C1 (single isomer, unassigned) [Compound 37]", "unit.of.measurement": "%", "Enzymatic Emax (%)": 96.0}
{"molecule": "CC(c1ccc2c(c1)OCO2)N1CCCC(c2cc3ncccc3[nH]2)C1 (single isomer, unassigned) [Compound 32]", "unit.of.measurement": "%", "Enzymatic Emax (%)": 89.4}
{"molecule": "Cn1c(C2CCCN(Cc3ccc4nccnc4c3)C2)cc2ncccc21 (single isomer, unassigned) [Compound 42]", "unit.of.measurement": "%", "Enzymatic Emax (%)": 93.2}
{"molecule": "CC(c1ccc2c(c1)OCO2)N1CCCC(c2cc3ncccc3[nH]2)C1 (single isomer, unassigned) [Compound 30]", "unit.of.measurement": "%", "Enzymatic Emax (%)": 75.1}
{"molecule": "CC(c1ccc2c(c1)OCO2)N1CCCC(c2cc3ncccc3[nH]2)C1 (single isomer, unassigned) [Compound 29]", "unit.of.measurement": "%", "Enzymatic Emax (%)": 73.5}
{"molecule": "CC(=O)Nc1ncc(CN2CCCC(c3cc4cnccc4[nH]3)C2)s1 (single isomer, unassigned)", "unit.of.measurement": "%", "Enzymatic Emax (%)": 96.3}
{"molecule": "CC(c1ccc2c(c1)OCO2)N1CCCC(c2cc3ncccc3n2C)C1 (single isomer, unassigned) [Compound 46]", "unit.of.measurement": "%", "Enzymatic Emax (%)": 24.2}
{"molecule": "CC(c1ccc2c(c1)OCO2)N1CCCC(c2cc3ncccc3[nH]2)C1 (single isomer, unassigned) [Compound 31]", "unit.of.measurement": "%", "Enzymatic Emax (%)": 100.4}
{"molecule": "CC(c1ccc2c(c1)OCCO2)N1CCCC(c2cc3ncccc3[nH]2)C1 (single isomer, unassigned) [Compound 35]", "unit.of.measurement": "%", "Enzymatic Emax (%)": 87.7}
{"molecule": "CC(c1ccc2c(c1)OCO2)N1CCCC(c2cc3ncccc3n2C)C1 (single isomer, unassigned) [Compound 48]", "unit.of.measurement": "%", "Enzymatic Emax (%)": 31.7}
{"molecule": "CC(c1ccc2c(c1)OCO2)N1CCCC(c2cc3ncccc3n2C)C1 (single isomer, unassigned) [Compound 45]", "unit.of.measurement": "%", "Enzymatic Emax (%)": 100}
